Tested on: OVCAR-8 ovarian
method-notes: NCI tumour cell line growth inhibition, 48 h
property-label: TGI (µM)
Give just the number in µM; leave the unit off.

[Q] So what TGI did COCCn1cnc2c(Cl)nc(Nc3ccccc3)nc21 get with OVCAR-8 ovarian?
[A] 54.9

[Q] So what TGI did O=C(CCN1CCOCC1)Nc1cccc(-n2cc(-c3ccncc3)c(-c3ccc(Cl)c(O)c3)n2)c1 get with OVCAR-8 ovarian?
[A] 57.5

[Q] So what TGI did CC(C)(C)c1cc(C(=O)/C=C/c2ccc(C(=O)O)cc2)cc(C(C)(C)C)c1 get with OVCAR-8 ovarian?
[A] 7.13

[Q] So what TGI did NCCCn1c2c(c3ccccc3c1=O)C(=O)c1ccccc1-2 get with OVCAR-8 ovarian?
[A] 1.32

[Q] So what TGI did O=C(CBr)c1ccc2cc(Br)c3ccccc3c2c1 get with OVCAR-8 ovarian?
[A] 55.8

[Q] So what TGI did COc1ccc(N2C(=O)C(=O)N(c3ccc(N=Nc4ccccc4)cc3)C2=S)cc1 get with OVCAR-8 ovarian?
[A] 35.6

[Q] So what TGI did Cc1ccc(C)c(N2C(=O)C(=O)C(c3nc4ccccc4o3)/C(=N\NC(=O)c3ccccc3O)C2=O)c1 (stereo not given) get with OVCAR-8 ovarian?
[A] 76.7

[Q] So what TGI did Cc1c2ccc3ccccc3c2c[n+]2ccccc12 get with OVCAR-8 ovarian?
[A] 39.6

[Q] So what TGI did COc1cc(/C=C/C(=O)C(C(=O)/C=C/c2ccc(OC(=O)CCNC34CC5CC(CC(C5)C3)C4)c(OC)c2)C(=O)CCNC23CC4CC(CC(C4)C2)C3)ccc1OC(=O)CCNC12CC3CC(CC(C3)C1)C2 (stereo not given) get with OVCAR-8 ovarian?
[A] 5.18

[Q] So what TGI did CNCCn1c(=O)c2cc(OC)c(OC)cc2c2cnc3cc4c(cc3c21)OCO4 get with OVCAR-8 ovarian?
[A] 1.34

[Q] So what TGI did Cc1ccc(CSC(N)=Nc2ccccc2)cc1C get with OVCAR-8 ovarian?
[A] 45.9

[Q] So what TGI did CCOC(=O)c1c(OCC)[nH]c(=O)c(C(c2cccs2)c2c(O)c(C(=O)OCC)c(OCC)[nH]c2=O)c1O get with OVCAR-8 ovarian?
[A] 41.6

[Q] So what TGI did Cc1cc(NCCCCNc2ccnc3cc(Cl)ccc23)nc(Nc2ccc(C(=O)N3CCCCC3)cc2)n1 get with OVCAR-8 ovarian?
[A] 5.49

[Q] So what TGI did O=C1CC(=O)NC(=NN2C(=O)/C(=C/c3ccc(Cl)c(Cl)c3)N=C2c2ccccc2)N1 get with OVCAR-8 ovarian?
[A] 94.9

[Q] So what TGI did O=Cc1ccc(-c2ccc(-c3ccc(CO)s3)o2)s1 get with OVCAR-8 ovarian?
[A] 49

[Q] So what TGI did Cc1c2c(C(N)=O)nccc2c(C)c2c1c1ccccc1n2Cc1ccccc1 get with OVCAR-8 ovarian?
[A] 31.3

[Q] So what TGI did O=C(N/N=C/c1ccc(O)cc1O)c1cccnc1 get with OVCAR-8 ovarian?
[A] 96.3

----------
Tested on: HL-60(TB) leukemia
method-notes: NCI tumour cell line growth inhibition, 48 h
property-label: TGI

[Q] What TGI value was documented for this molecule, COC(=O)C1=C(OC)[C@H]2C#C/C=C\C#C[C@@H]3Nc4c(cc(O)c5c4C(=O)c4ccccc4C5=O)[C@]24O[C@@]34[C@H]1C ?
[A] < 0.01 µM

[Q] What TGI value was documented for this molecule, O=C1c2ccccc2OCC12OC21C=CC(Cl)=CC1 (stereo not given) ?
[A] 37.3 µM

[Q] What TGI value was documented for this molecule, COc1cc(/C=N\O[Si](C)(C)C(C)(C)C)ccc1O[Si](C)(C)C(C)(C)C ?
[A] > 100 µM

[Q] What TGI value was documented for this molecule, Cc1ccc(N2C(=O)N(c3ccc(C)cc3)C3(SC=NN3C)C2=O)cc1 (stereo not given) ?
[A] > 100 µM

[Q] What TGI value was documented for this molecule, Cc1[nH]n(-c2nc(O)c(-c3ccccc3)c(=O)[nH]2)c(=O)c1CCO ?
[A] > 100 µM

[Q] What TGI value was documented for this molecule, Oc1ccc(/C=C/c2cc(O)cc3c2C(c2cc(O)cc(O)c2)C(c2ccc(O)c(O)c2)O3)cc1 (stereo not given) ?
[A] 54.5 µM

[Q] What TGI value was documented for this molecule, COc1cc(/C=C/C(=O)Oc2ccccc2)ccc1C(=O)O/C=C/c1ccccc1 ?
[A] > 100 µM

[Q] What TGI value was documented for this molecule, C1=NC(N(Cc2ccccc2)Cc2ccccc2)N(Cc2ccccc2)N1 (stereo not given) ?
[A] > 100 µM

[Q] What TGI value was documented for this molecule, NCCCNCCCCN1CCOC1=O ?
[A] > 100 µM

[Q] What TGI value was documented for this molecule, CC1(C)N=C(N)N=C(N)N1c1cccc(OCCOc2cccc([N+](=O)[O-])c2)c1 ?
[A] > 77.8 µM

----------
Test system: SK-MEL-28 melanoma
method-notes: NCI tumour cell line growth inhibition, 48 h
So I've got a bunch of compounds here, and I need their TGI values.

[Q] What TGI value was documented for this compound, O=C(NNc1cnccn1)c1nc2cc(F)ccc2n2cccc12 ?
[A] > 100 µM

[Q] What TGI value was documented for this compound, O=P1(Cc2ccccc2)N(Cc2ccccc2)[C@@H]2CCCC[C@H]2N1Cc1ccccc1 ?
[A] 33.2 µM

[Q] What TGI value was documented for this compound, O=C1OCC2OC(=O)c3cc(O)c(O)c(O)c3-c3c(O)c(O)c(O)c4c3C(=O)OC(C2OC(=O)c2cc(O)c(O)c(O)c2-c2c1cc(O)c(O)c2O)C1OC(=O)C2C4=C(O)C(=O)C23Oc2cc(O)c4c(c2[C@H]13)O[C@H](c1ccc(O)c(O)c1)[C@@H](O)C4 (stereo not given in full) ?
[A] > 100 µM

[Q] What TGI value was documented for this compound, CCc1nc(Cl)c(Cl)c(Cl)n1 ?
[A] > 100 µM

[Q] What TGI value was documented for this compound, O=[N+]([O-])c1ccc(Sc2c3ccccc3nc3ccccc23)cn1 ?
[A] 58.4 µM

[Q] What TGI value was documented for this compound, CC(=O)[CH-]C(=O)c1ccccc1.CC(=O)[CH-]C(=O)c1ccccc1.O=S(=O)([O-])c1cc([O-])c2c([O-])cc(S(=O)(=O)[O-])cc2c1.[Na+].[Ti+4] ?
[A] > 100 µM

[Q] What TGI value was documented for this compound, CCOC(=O)CCC1(CCC(=O)OCC)CCCCCCCCC(CCC(=O)OCC)(CCC(=O)OCC)C(=O)C1=O ?
[A] > 100 µM

[Q] What TGI value was documented for this compound, COc1ccc2nc3cc(Cl)ccc3c(Sc3ccc(NC(C)=O)cc3)c2c1 ?
[A] 38.7 µM

[Q] What TGI value was documented for this compound, CCCCCCCCCCCC(=O)OC[C@@H](C[As](=O)(O)O)OC(=O)CCCCCCCCCCC ?
[A] 11.3 µM

[Q] What TGI value was documented for this compound, O=[N+]([O-])c1c(F)c(F)c2c(c1F)N(CCCCCl)c1ccccc1S2 ?
[A] 10.9 µM

[Q] What TGI value was documented for this compound, Cc1ccc(C)c(N2C(=O)C(=O)C(c3nc4ccccc4o3)/C(=N/N)C2=O)c1 (stereo not given) ?
[A] > 100 µM

[Q] What TGI value was documented for this compound, CC12CCC(=O)N1c1cccnc1N2 (stereo not given) ?
[A] > 100 µM

[Q] What TGI value was documented for this compound, CC(=O)NC1CONC1=O (stereo not given) ?
[A] > 100 µM

[Q] What TGI value was documented for this compound, COc1cc2c(cc1OC)C1Cc3cc(OC)c(OC)cc3N1CC2 (stereo not given) ?
[A] > 100 µM

[Q] What TGI value was documented for this compound, CC(=O)OCC1OC(n2c(C)c(N=Nc3ccc(Cl)cc3)c(C)c(C#N)c2=S)C(OC(C)=O)C(OC(C)=O)C1OC(C)=O (stereo not given) ?
[A] > 100 µM

[Q] What TGI value was documented for this compound, COCCn1cnc2c(Cl)nc(Nc3ccccc3)nc21 ?
[A] > 100 µM

[Q] What TGI value was documented for this compound, COc1ccc(/C=C/c2cnccn2)cc1OC ?
[A] > 10 µM

[Q] What TGI value was documented for this compound, Nc1nc(SCc2ccccc2Cl)c2[nH]cnc2n1 ?
[A] > 100 µM

[Q] What TGI value was documented for this compound, C=CCC1(C)CCCCC1(O)CS(=O)c1ccccc1 (stereo not given) ?
[A] > 100 µM

[Q] What TGI value was documented for this compound, C1COCCSC2=C(SCCO1)SC(=C1SC3=C(SCCOCCOCCS3)S1)S2 ?
[A] > 100 µM

----------
Tested on: UACC-62 melanoma
method-notes: NCI tumour cell line growth inhibition, 48 h; in the data active means GI50 below about 0.43 µM; inactive means the rest
Outcomes you can answer with include only these: active, inactive

[Q] For COc1cc2c3c(n(CCCN(C)CCO)c(=O)c2cc1OC)-c1cc2c(cc1C3=O)OCO2 , which call appears in the assay record?
[A] inactive

[Q] For CN1C(NNC(=O)c2cccnc2)=NS(=O)(=O)c2cc(Cl)ccc21 , which call appears in the assay record?
[A] inactive

[Q] For O=C(NNc1cnccn1)c1nc2cc(F)ccc2n2cccc12 , which call appears in the assay record?
[A] inactive

[Q] For NCCCn1c2c(c3ccccc3c1=O)C(=O)c1ccccc1-2 , which call appears in the assay record?
[A] active

[Q] For COc1ccc(-c2ccc(NNC(=O)c3ccc(F)cc3)nn2)cc1OC , which call appears in the assay record?
[A] inactive

[Q] For O=C(N/N=C/c1ccc(O)cc1O)c1cccnc1 , which call appears in the assay record?
[A] inactive

[Q] For C=C1C(O)C2C(=C(C)C13CC3)C(=O)C(C)(C)C2OC (centres undefined) , which call appears in the assay record?
[A] inactive

[Q] For N#CC(C#N)=C1CCCOc2c1ccc1ccccc21 , which call appears in the assay record?
[A] inactive

[Q] For CNC(C)[C@H]1CCC2C3CC=C4C(=O)[C@@H](NC(=O)C=C(C)C)CC[C@]4(C)C3CC[C@@]21C (some centres undefined) , which call appears in the assay record?
[A] inactive

Values were extracted from PubChem BioAssay (NCI).
